A compilation of published pIC50 results with Galectin-3 (Homo sapiens).
In simple prose, pIC50 is minus the logarithm base ten of a concentration in moles per litre.

Observe how each entry below is paired with its result.
1) CO[C@@H]1[C@@H](n2cc(-c3cc(F)c(F)c(F)c3)nn2)[C@@H](O)[C@@H](CO)O[C@@H]1CC1=NO[C@]2(CC[C@@H](C(C)C)CC2)C1: 5.70
2) CO[C@@H]1[C@@H](n2cc(-c3ccc(C#N)c(F)c3)nn2)[C@@H](O)[C@@H](CO)O[C@H]1C(=O)N(c1cc(C)cc(C#N)c1)[C@H]1CCCC[C@@H]1O: 6.90

Data request: May I ask what pIC50 has been recorded for CO[C@@H]1[C@@H](n2cc(-c3ccc(C)c(F)c3F)nn2)[C@@H](O)[C@@H](CO)O[C@@H]1Cc1cc(C2(C)CCOCC2)on1 ?
Data returned: 7.42
